Molecular target: 3',5'-cyclic-AMP phosphodiesterase 4B (Homo sapiens, UniProt Q07343)
Sequence (Q07343 whole entry): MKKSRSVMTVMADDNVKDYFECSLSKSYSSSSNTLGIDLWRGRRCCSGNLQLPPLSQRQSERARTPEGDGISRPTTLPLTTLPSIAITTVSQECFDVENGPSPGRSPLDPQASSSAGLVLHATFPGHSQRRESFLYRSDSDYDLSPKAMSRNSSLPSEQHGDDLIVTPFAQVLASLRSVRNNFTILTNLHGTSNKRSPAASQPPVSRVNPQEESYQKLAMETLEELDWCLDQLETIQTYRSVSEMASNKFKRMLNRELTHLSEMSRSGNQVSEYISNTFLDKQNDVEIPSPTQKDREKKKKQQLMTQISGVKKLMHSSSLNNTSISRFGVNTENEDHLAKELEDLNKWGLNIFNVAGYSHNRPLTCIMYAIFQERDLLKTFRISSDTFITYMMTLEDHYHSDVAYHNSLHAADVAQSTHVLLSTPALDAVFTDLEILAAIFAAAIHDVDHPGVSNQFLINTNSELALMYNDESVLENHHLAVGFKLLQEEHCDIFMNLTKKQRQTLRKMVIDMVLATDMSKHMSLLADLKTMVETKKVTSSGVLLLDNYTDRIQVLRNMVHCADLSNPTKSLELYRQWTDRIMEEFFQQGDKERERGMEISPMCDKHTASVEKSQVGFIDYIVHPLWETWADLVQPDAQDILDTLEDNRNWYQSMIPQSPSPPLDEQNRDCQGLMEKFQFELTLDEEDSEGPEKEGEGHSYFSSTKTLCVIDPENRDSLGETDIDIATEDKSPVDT
Experiment: Inhibition of human recombinant PDE4B2 assessed at 10 uM after 60 mins by IMAP fluorescence polarization assay
reported_property: inhibition (%)

O=[N+]([O-])c1cc(Cl)ccc1Sc1ccncc1: 77

I: Nc1ccc(Sc2ccc([N+](=O)[O-])c(Cl)c2)cc1
II: O=[N+]([O-])c1cc(Cl)ccc1Sc1ccccc1Br
Problem: Lowest inhibition? choose I or II Could you answer with the label of the item you picked?
Result: I
(I: 2%, II: 30%)

A: CC(=O)Nc1ccccc1Sc1cc(Cl)ccc1[N+](=O)[O-]
B: O=[N+]([O-])c1ccc(Sc2ccccn2)c(Cl)c1
C: Nc1ccc(Sc2ccc(Cl)cc2[N+](=O)[O-])cc1
D: O=[N+]([O-])c1ccc(Cl)cc1Sc1ccccc1Br
E: O=[N+]([O-])c1ccc(Sc2ccncc2)c(Cl)c1
Problem: Reorder: inhibition, max to min. In your reply, arrange the labels in the requested order.
Result: E, B, A, D, C

* * *

Molecular target: UniProtKB Q14432
Sequence (Q14432 whole entry): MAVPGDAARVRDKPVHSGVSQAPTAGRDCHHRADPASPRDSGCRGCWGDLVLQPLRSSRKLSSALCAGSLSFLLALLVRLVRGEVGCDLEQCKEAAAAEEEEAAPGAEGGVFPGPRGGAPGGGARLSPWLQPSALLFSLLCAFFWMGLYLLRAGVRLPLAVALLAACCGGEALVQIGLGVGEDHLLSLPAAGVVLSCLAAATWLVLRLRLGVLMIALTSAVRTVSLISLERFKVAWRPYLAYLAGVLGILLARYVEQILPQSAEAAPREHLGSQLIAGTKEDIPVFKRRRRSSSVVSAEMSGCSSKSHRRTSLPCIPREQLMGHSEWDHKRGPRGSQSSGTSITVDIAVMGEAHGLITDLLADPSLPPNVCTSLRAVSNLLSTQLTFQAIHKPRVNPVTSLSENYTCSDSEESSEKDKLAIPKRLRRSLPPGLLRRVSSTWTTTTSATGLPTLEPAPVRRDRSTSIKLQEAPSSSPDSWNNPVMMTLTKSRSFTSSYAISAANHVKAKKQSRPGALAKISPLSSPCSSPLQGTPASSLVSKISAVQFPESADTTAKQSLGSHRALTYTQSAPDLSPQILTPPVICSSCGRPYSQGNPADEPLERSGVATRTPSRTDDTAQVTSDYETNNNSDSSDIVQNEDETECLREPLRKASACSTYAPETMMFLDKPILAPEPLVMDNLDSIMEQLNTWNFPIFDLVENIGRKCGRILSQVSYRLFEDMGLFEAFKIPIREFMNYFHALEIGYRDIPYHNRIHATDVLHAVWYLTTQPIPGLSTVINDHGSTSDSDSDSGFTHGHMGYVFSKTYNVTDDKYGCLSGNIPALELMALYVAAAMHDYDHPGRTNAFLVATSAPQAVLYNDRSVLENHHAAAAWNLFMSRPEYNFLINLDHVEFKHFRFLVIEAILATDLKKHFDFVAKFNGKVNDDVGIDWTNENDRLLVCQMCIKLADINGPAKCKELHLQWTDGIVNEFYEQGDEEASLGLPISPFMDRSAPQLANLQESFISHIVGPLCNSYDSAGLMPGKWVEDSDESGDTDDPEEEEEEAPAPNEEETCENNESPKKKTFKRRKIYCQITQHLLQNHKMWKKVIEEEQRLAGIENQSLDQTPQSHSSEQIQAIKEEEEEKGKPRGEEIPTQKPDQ
Assay: Inhibition of human recombinant PDE3A assessed as inhibition of hydrolysis of [3H]cAMP at 10 uM after 20 mins by scintillation proximity assay
reported_property: inhibition (%)

See these solved cases before continuing.
O=[N+]([O-])c1cc(Cl)ccc1Sc1ccncc1: 33
COc1ccc(C2CNC(=O)C2)cc1OC1CCCC1 (stereo unspecified): 9.42

P: Nc1ccc(Sc2ccc(Cl)cc2[N+](=O)[O-])cc1
Q: O=[N+]([O-])c1ccc(Cl)cc1Sc1ccccc1Br
R: O=[N+]([O-])c1cc(Cl)ccc1Sc1ccccc1Br
Problem: Which order do these items take when sorted by rising inhibition? List them. In your reply, arrange the labels in the requested order.
Result: Q, P, R
(Q: 16%, P: 37%, R: 60%)

* * *

Target: UniProt:Q13946
Assay: Inhibition of human recombinant PDE7A1 assessed as inhibition of hydrolysis of [3H]cAMP at 10 uM after 20 mins by scintillation proximity assay
reported_property: inhibition (%)

See these solved cases before continuing.
Nc1ccc(Oc2ccc([N+](=O)[O-])cc2Cl)cc1: 77
Nc1ccc(Sc2ccc(Cl)cc2N)cc1: 13
Nc1ccccc1Sc1ccc(F)cc1[N+](=O)[O-]: 38

A: Nc1ccc(Sc2ccc([N+](=O)[O-])cc2Cl)cc1
B: O=[N+]([O-])c1ccc(Sc2ccc([N+](=O)[O-])cc2Cl)cc1
Problem: Which one would you say has the larger inhibition value: A , or B ? Could you answer with the label of the item you picked?
Result: A
(A: 83%, B: 1%)

* * *

Target: 3',5'-cyclic-AMP phosphodiesterase 4B (Homo sapiens)
Assay: Inhibition of human recombinant PDE4B2 assessed after 60 mins by IMAP fluorescence polarization assay
pIC50: −log10 of the molar value.
reported_property: pIC50

O=[N+]([O-])c1cc(Cl)ccc1Sc1ccncc1: 5.36

1: O=[N+]([O-])c1ccc(Sc2ccncc2)c(Cl)c1
2: Cc1ccc([N+](=O)[O-])cc1S(=O)(=O)N(C)C
Problem: Which one would you say has the larger pIC50 value: 1 , or 2 ? Could you answer with the label of the item you picked?
Result: 2
(2: 5.74, 1: 5.18)

* * *

Target: High affinity 3',5'-cyclic-AMP phosphodiesterase 7A (Homo sapiens)
Sequence (Q13946 whole entry): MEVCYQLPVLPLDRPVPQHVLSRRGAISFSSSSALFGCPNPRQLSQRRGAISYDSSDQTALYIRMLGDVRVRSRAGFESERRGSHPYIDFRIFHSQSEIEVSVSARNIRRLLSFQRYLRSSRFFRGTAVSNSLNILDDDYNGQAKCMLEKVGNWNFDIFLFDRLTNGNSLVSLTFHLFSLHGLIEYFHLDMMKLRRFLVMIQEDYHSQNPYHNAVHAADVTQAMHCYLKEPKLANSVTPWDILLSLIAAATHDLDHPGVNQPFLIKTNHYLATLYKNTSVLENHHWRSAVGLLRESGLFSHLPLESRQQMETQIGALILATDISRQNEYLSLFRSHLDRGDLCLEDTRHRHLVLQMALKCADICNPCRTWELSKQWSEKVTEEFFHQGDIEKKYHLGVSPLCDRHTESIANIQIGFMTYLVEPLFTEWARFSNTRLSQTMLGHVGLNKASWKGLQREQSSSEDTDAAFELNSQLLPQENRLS
Experiment: Inhibition of human recombinant PDE7A1 assessed as inhibition of hydrolysis of [3H]cAMP after 20 mins by scintillation proximity assay
pIC50: −log10 of the molar value.
reported_property: pIC50

See these solved cases before continuing.
Nc1ccc(Oc2ccc([N+](=O)[O-])cc2Cl)cc1: 5.66
O=[N+]([O-])c1ccc(Sc2cccs2)c(Cl)c1: 5.28
O=[N+]([O-])c1cc(Cl)c(Cl)cc1Sc1ccccc1Br: 5.54
Nc1ccccc1Sc1ccc([N+](=O)[O-])cc1Cl: 5.06
Nc1ccc(Sc2ccc(N)cc2Cl)cc1: 5.19
Nc1ccc(Sc2ccc([N+](=O)[O-])cc2Cl)cc1: 5.40
O=[N+]([O-])c1cc(Cl)ccc1Sc1ccccn1: 5.44
Nc1ccc(Sc2ccc([N+](=O)[O-])c(Cl)c2)cc1: 5.83
O=[N+]([O-])c1ccc(Sc2ccccn2)c(Cl)c1: 5.89
O=[N+]([O-])c1cc(Cl)ccc1Sc1ccccc1: 5.82

1: Nc1ccccc1Sc1sccc1[N+](=O)[O-]
2: O=[N+]([O-])c1ccc(Sc2ccccc2Br)c(Cl)c1
Problem: Which one would you say has the larger pIC50 value: 1 , or 2 ? Could you answer with the label of the item you picked?
Result: 2
(2: 5.67, 1: 5.37)

P: Nc1ccccc1Sc1cc(Cl)ccc1[N+](=O)[O-]
Q: Nc1cccc(Sc2ccc([N+](=O)[O-])cc2Cl)c1
R: O=[N+]([O-])c1ccc(Cl)cc1Sc1ccccc1Br
S: O=[N+]([O-])c1cc(Cl)ccc1Sc1cccs1
Problem: Reorder: pIC50, max to min. In your reply, arrange the labels in the requested order.
Result: R, S, Q, P

I: O=[N+]([O-])c1ccc(Sc2ccccc2)c(Cl)c1
II: Nc1ccc(Sc2ccc(F)cc2[N+](=O)[O-])cc1
III: O=[N+]([O-])c1cc(Cl)ccc1Sc1ccccc1Br
Problem: Reorder: pIC50, max to min. In your reply, arrange the labels in the requested order.
Result: III, I, II

1: O=[N+]([O-])c1ccc(Cl)cc1Sc1ccccn1
2: CC(=O)Nc1ccccc1Sc1cc(Cl)ccc1[N+](=O)[O-]
Problem: Lowest pIC50? choose 1 or 2 Could you answer with the label of the item you picked?
Result: 1
(1: 5.10, 2: 5.68)
